Cited source for all entries: ChEMBL document CHEMBL1138374

- Assayed target: Cannabinoid receptor 1 (Homo sapiens)
- Protocol description: Agonist activity at human recombinant CB1 receptor expressed in CHO cells by [35S]GTP-gamma-S binding assay
API: label(entry) gives class 1 if the entry's EC50 is strictly smaller than 50 nM; on equality or larger values it gives class 0.

{"columns": ["Given smiles", "Assayed target", "Classification"],
 "data": [
  ["Cc1ccc(C(=O)Nc2cccc(F)c2)cc1S(=O)(=O)N1CCCCC1", "Cannabinoid receptor 1 (Homo sapiens)", "class 0"],
  ["COc1ccccc1OC(=O)c1ccc(C)c(S(=O)(=O)N2CCOCC2)c1", "Cannabinoid receptor 1 (Homo sapiens)", "class 0"],
  ["O=C(Nc1ccc(Cl)c(S(=O)(=O)N2CCOCC2)c1)c1ccccc1Cl", "Cannabinoid receptor 1 (Homo sapiens)", "class 0"],
  ["Cc1ccc(C(=O)Oc2cccc3cccnc23)cc1S(=O)(=O)N1CCOCC1", "Cannabinoid receptor 1 (Homo sapiens)", "class 1"],
  ["Cc1ccc(C(=O)Oc2cccc3cccnc23)cc1S(=O)(=O)N1CCCCC1", "Cannabinoid receptor 1 (Homo sapiens)", "class 1"],
  ["Cc1ccc(C(=O)Nc2cccc3cnccc23)cc1S(=O)(=O)N1CCCCC1", "Cannabinoid receptor 1 (Homo sapiens)", "class 0"],
  ["Cc1ccc(C(=O)Nc2ccccc2)cc1S(=O)(=O)N1CCCC1", "Cannabinoid receptor 1 (Homo sapiens)", "class 0"],
  ["Cc1ccc(NC(=O)c2ccc(C)c(S(=O)(=O)N3CCCCC3)c2)nc1", "Cannabinoid receptor 1 (Homo sapiens)", "class 0"],
  ["COc1ccc(C(=O)Oc2cccc3cccnc23)cc1S(=O)(=O)N1CCOCC1", "Cannabinoid receptor 1 (Homo sapiens)", "class 0"]
]}

----------
- Assayed target: Cannabinoid receptor 1 (Homo sapiens, UniProt P21554)
- Sequence (P21554 whole entry): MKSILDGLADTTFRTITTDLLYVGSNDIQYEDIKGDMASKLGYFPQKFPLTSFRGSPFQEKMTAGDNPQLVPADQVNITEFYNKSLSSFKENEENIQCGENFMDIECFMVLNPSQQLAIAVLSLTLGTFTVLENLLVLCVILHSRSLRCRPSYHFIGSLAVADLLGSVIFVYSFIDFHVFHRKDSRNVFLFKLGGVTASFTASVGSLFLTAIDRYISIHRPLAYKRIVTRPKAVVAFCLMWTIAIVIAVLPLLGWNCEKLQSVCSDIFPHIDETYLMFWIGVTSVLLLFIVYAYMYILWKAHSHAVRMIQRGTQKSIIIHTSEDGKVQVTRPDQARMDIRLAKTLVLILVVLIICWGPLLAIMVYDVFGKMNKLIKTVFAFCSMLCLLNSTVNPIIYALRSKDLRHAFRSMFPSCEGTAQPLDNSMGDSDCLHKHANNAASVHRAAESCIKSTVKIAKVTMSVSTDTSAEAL
- Protocol description: Binding affinity to human recombinant CB1 receptor
pIC50: −log10 of the molar value.
Short version: pIC50 at least 6 is true, less is false.

{"columns": ["Given smiles", "Classification"],
 "data": [
  ["COc1ccccc1OC(=O)c1ccc(C)c(S(=O)(=O)N2CCOCC2)c1", "false"],
  ["O=C(Nc1ccccc1O)c1ccc(Cl)c(S(=O)(=O)N2CCCCCC2)c1", "true"],
  ["Cc1ccc(C(=O)Nc2ccccc2)cc1S(=O)(=O)N1CCCC1", "false"],
  ["Cc1ccc(NC(=O)c2cccc(C#N)c2)cc1S(=O)(=O)N1CCOCC1", "false"],
  ["O=C(Oc1cccc2cccnc12)c1cccc(S(=O)(=O)N2CCCCCC2)c1", "true"]
]}
